Target: human M1 muscarinic receptors (Homo sapiens, UniProt P11229)
Sequence (P11229 whole entry): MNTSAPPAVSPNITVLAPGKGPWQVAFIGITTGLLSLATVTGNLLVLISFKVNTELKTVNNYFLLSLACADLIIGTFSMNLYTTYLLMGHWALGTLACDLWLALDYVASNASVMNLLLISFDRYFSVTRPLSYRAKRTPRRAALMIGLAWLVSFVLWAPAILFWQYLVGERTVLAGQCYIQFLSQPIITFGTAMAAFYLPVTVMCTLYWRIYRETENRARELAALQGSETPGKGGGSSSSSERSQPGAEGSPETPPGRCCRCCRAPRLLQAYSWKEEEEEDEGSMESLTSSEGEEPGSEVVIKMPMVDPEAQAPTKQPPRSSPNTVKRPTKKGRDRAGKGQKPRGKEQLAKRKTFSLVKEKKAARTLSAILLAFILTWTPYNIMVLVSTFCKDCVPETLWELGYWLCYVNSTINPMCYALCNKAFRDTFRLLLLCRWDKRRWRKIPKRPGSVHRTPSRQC
Assay: [3H]-arachidonic acid release in CHO cells expressing M1 receptors, with and without ACh (single modulator concentration, four-parameter curves)
Format: cell-based
Design: expressed in transfected cells; host or cells: CHO cells stably transfected with hM1, obtained from Mark Brann's laboratory (NIH)
Details: modulator 10 µM; 0.1 µM ACh; CHO-hM1; mean ± s.e.m.
Metric name: 0.1 µM ACh: response with modulator present divided by response to ACh alone
Give only the figure.

Task: State the recorded 0.1 µM ACh: response with modulator present divided by response to ACh alone for this entry: COc1c(F)cc(CN2C(=O)C(=O)c3ccccc32)cc1F
Result: 1.41

Task: Check COc1ccc(CN2C(=O)C(=O)c3ccccc32)cc1F too.
Result: 1.32

Task: Check CCCCc1oc2ccccc2c1C(=O)c1ccc(OC)cc1 too.
Result: 1.37

Task: Check COc1ccc(CN2C(=O)C(=O)c3ccccc32)cc1I too.
Result: 2.13

Task: Check CCCCc1oc2ccccc2c1C(=O)c1cc(I)c(O)c(I)c1 [Compound 3, reference compound] too.
Result: 0.63

Task: Check CCCCc1oc2ccccc2c1C(=O)c1cc(I)c(OC)c(I)c1 too.
Result: 1.78

Task: Check CCCCc1oc2ccccc2c1C(=O)c1cc(I)c(OCCNCC)c(I)c1.Cl too.
Result: 1.01

Task: Check COc1ccc(CN2C(=O)C(=O)c3ccccc32)cc1Br too.
Result: 1.57

Task: Check CCCCc1oc2ccccc2c1C(=O)c1ccc(O)cc1 [Compound 4, reference compound] too.
Result: 0.62

Task: Check COc1c(Cl)cc(CN2C(=O)C(=O)c3ccccc32)cc1Cl too.
Result: 2.29

Task: Check O=C1C(=O)N(Cc2ccc(O)cc2)c2ccccc21 [Compound 10, 1-(4-hydroxybenzyl)indoline-2,3-dione] too.
Result: 1.42

Task: Check O=C1C(=O)N(Cc2ccc(Br)cc2)c2ccccc21 [VU0119498, reference compound] too.
Result: 1.28

Task: Check COc1ccc(CN2C(=O)C(=O)c3ccccc32)cc1Cl too.
Result: 1.67

Task: Check COc1cccc(CN2C(=O)C(=O)c3ccccc32)c1 too.
Result: 1.09

Task: Check COc1cc(CN2C(=O)C(=O)c3ccccc32)cc(OC)c1OC too.
Result: 1.55

Task: Check CCN(CC)CCOc1c(Br)cc(CN2C(=O)C(=O)c3ccccc32)cc1Br.Cl too.
Result: 0.10
